The values you see were collected from BindingDB's records for doi:10.1021/jm950721m.

runDescription: Compound was evaluated for effective concentration […] for Dopamine receptor D2 mitogenesis. (95% confidence intervals)
Can you tell me EC50 for the items I'm about to list?
# output: number + unit

## Task What value of EC50 has been reported for the following molecule? Nc1cccc(C#CCCN2CC=C(c3ccccc3)CC2)c1
## Result 9.8 nM

## Task What value of EC50 has been reported for the following molecule? Nc1ccc(C#CCCN2CC=C(c3ccccc3)CC2)cc1
## Result 0.5 nM

###

runDescription: Binding affinity to rat Dopamine receptor D3 expressed in CHO cells was determined using [125 I] iodosulpride as radioligand
parameterMeasured: pKi
The value called pKi is obtained by taking minus log10 of the concentration in mol/L.

## Task What value of pKi has been reported for the following compound? Nc1cccc(C#CCCN2CC=C(c3ccccc3)CC2)c1
## Result 9.44
